Assignment: determine reported cytotoxicity at 10 µM for the given compounds.
# Test description: Toxicity liver stage against HepG2, at 10uM
# Format: cell-based
# Set-up: test concentration 10 uM, cell line HepG2-A16-CD81EGFP
# Test conditions: human, HepG2-A16-CD81EGFP cells; read-out: INHIBITION
One number for each entry, in %.

Examples with their reported cytotoxicity at 10 µM follow.
NC(=O)N1CCC2(CC1)CN(Cc1cccnc1)C(=O)CO2	3.63
CCN(CC)c1ccc2ccc(C(=O)N(C)C)cn12	0.626
Fc1cccnc1O[C@H]1CN(Cc2ccoc2)[C@@H]2CCCO[C@H]12	-0.908

Working through the 8 compounds below one at a time, give cytotoxicity at 10 µM for each.
1. Cc1noc(C)c1CN1C[C@@H]2COC[C@H](C(=O)N3CCCO3)[C@@H]2C1
2. O=C(c1cc(-c2cccnc2)[nH]n1)N1CCCC(c2cnccn2)C1 (stereo not given)
3. Cn1c(CCNC(=O)Nc2cn[nH]c2)nc2ccc(F)cc21
4. Cc1cccc(N2CCN(C(=O)NC(C)c3nncn3C)CC2)c1C (stereo not given)
5. CCS(=O)(=O)N1CCC2(CC(=O)N(c3cccc(C)c3)C2)C1 (stereo not given)
6. CSCC[C@H](NC(C)=O)c1nc(CC(C)C)n[nH]1
7. CC(C)(N)C(=O)N1CCCC1c1cncc(Oc2ccc(F)cc2)n1 (stereo not given)
8. Cc1nc(CO[C@H]2CN(C(=O)c3cccnc3)[C@@H]3COC[C@H]23)cs1

-66.6
6.21
-6.97
-4.41
-7.79
6.05
1.11
-110

Provide cytotoxicity at 10 µM for all items below, preserving their order.
1. CN1CCN(S(C)(=O)=O)c2cc(F)ccc21
2. O=C1CCc2cc(S(=O)(=O)NCc3cc4n(n3)CCNC4)ccc2N1
3. Cc1n[nH]c(C)c1C1CCCN1C(=O)NCC(=O)Nc1ccccc1 (stereo not given)
4. COC(=O)c1sc2nc3c(c(C(F)(F)F)c2c1N)CN(C(C)=O)CC3

1. -1.15
2. 3.28
3. 4.23
4. -8.18

Give me cytotoxicity at 10 µM for each of these compounds, listed below.
1. O=C(CN1CCC(C(=O)c2cc(F)ccc2F)CC1)NC1CC1
2. O=C(c1c2c(NCC3CC3)ncnc2n2ccccc12)N1CCCC1
3. CC(OCC1CC1)C(=O)Nc1ncn(CC(=O)N2CCCCCC2)n1 (stereo not given)
4. COc1cccc([C@H]2CN(C(=O)c3nnc4n3CCCC4)C[C@@H]2N)c1
5. COc1cccc(C(C)N2CCN(S(C)(=O)=O)CC2)c1 (stereo not given)
6. COCCc1noc(CN(C)C(=O)c2cccc(N3CCCC3=O)c2)n1
7. Cc1nccn1Cc1nnc(C2CCN(c3ccncc3F)CC2)n1C

-6.04
9.31
-15.2
-2.57
-8.42
-9.91
-9.36

Please state, for each entry, its recorded cytotoxicity at 10 µM.
1. CC(C)Cc1nc(CNCc2cccc(N3CCCC3=O)c2)no1
2. OC(COCc1cccs1)Cn1cc(Cl)cn1 (stereo not given)

0.753
-0.574

Fill in cytotoxicity at 10 µM for each of the 2 compounds listed.
1. COc1ccc(-c2n[nH]cc2CN(C)Cc2nonc2C)c(F)c1
2. COc1ccc(OC)c(CNCc2ccnc(N3CCCCC3)c2)c1

-6.46
0.25

Provide cytotoxicity at 10 µM values for the following items, in order.
1. CC(C)OCCC1CCCCN1S(N)(=O)=O (stereo not given)
2. O=S(=O)(NCC1COc2ccccc2C1)N1CCCC1 (stereo not given)
3. O=C(c1cccc(O)c1)N1C[C@@H](CN2CCCCC2)[C@@H](CO)C1
4. CN1CC(NC(=O)CCOc2cccc(Cl)c2)CC1=O (stereo not given)
5. CN(Cc1cc2n(n1)CCNC2)Cc1n[nH]c2c1CCC2
6. Cc1ccc(C(=O)N[C@H]2CN(CCO)C[C@@H]2C2CC2)cc1Cl
7. COc1ncc(NCc2ccc(F)cc2)cc1C(N)=O
8. CNC(=O)NC(=O)C(C)N1CCN(C2CCCC2)CC1 (stereo not given)

[7.36, -7.74, -2.88, -5.4, 5.04, 6.93, -0.976, -14]

Consider the compound COc1ccc(Cl)cc1NC(=O)CNc1ccn(CC(N)=O)n1 and give its measured cytotoxicity at 10 µM.
13.6

Hey, just so you know, these numbers are from ChEMBL document CHEMBL4513216.
